Ref: the supplement of paper PMC10567573

B1: FAM9B (parent)
chain: EDLTAKRKRMKMDKTCSKTKNKSK

Variants of: B1
Assay: protein stability index of a GFP-peptide fusion (GPS, HEK-293T) (PSI 1-6); higher = more stable;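 further: lentivirally expressed fusions sorted by FACS into six bins by GFP to DsRed ratio, PSI derived from sequencing read proportions per bin multiplied by bin number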
Details: c terminus: a fixed tail appended
property: protein stability index
Give the figure by itself; no unit, no explanation.

Below, each entry is followed by its recorded protein stability index result.
K6L; 4.85
T4C; 4.52
K14P; 5.37

In: Consider the variant shown here: R7M What is its recorded protein stability index?
Out: 4.75

In: Same question, K22V this time
Out: 4.39

In: // next record T19D
Out: 4.97

In: Consider next the variant T19W in the same way.
Out: 4.58

In: Follow-up entry: D13R
Out: 4.49

In: Same thing, different variant: K14T
Out: 5.03

In: // repeat for K18Y and report
Out: 4.59

In: Further, for S17G ?
Out: 5.02

In: How about K18Q ?
Out: 5.57
